# method-description: Aqueous solubility in sodium acetate buffer at pH 7.0 by turbidimetric measurements
# Type: physicochemical
Listed below: solubility kinetic values for each entry.
parameter-measured: solubility kinetic (µM)

{"structure": "CC(C)OC(=O)c1nn(-c2ccc(Cl)cc2)c(=O)c2c(N)scc12", "parameter-measured": "solubility kinetic", "limit-operator": "=", "recorded-value": 32}
{"structure": "CCN(C)C(=O)c1nn(-c2ccc(Cl)cc2)c(=O)c2c(N)scc12", "parameter-measured": "solubility kinetic", "limit-operator": "=", "recorded-value": 80}
{"structure": "CNC(=O)c1nn(-c2ccc(Cl)cc2)c(=O)c2c(N)scc12", "parameter-measured": "solubility kinetic", "limit-operator": "=", "recorded-value": 13}
{"structure": "CN(C)C(=O)c1nn(-c2ccc(Cl)cc2)c(=O)c2c(N)scc12", "parameter-measured": "solubility kinetic", "limit-operator": "=", "recorded-value": 32}
{"structure": "CCOC(=O)c1nn(-c2ccc(Cl)cc2)c(=O)c2c(N)scc12", "parameter-measured": "solubility kinetic", "limit-operator": "=", "recorded-value": 13}
{"structure": "CCNC(=O)c1nn(-c2ccc(Cl)cc2)c(=O)c2c(N)scc12", "parameter-measured": "solubility kinetic", "limit-operator": "=", "recorded-value": 32}
{"structure": "Nc1scc2c(C(=O)O)nn(-c3ccc(Cl)cc3)c(=O)c12", "parameter-measured": "solubility kinetic", "limit-operator": ">", "recorded-value": 200}
{"structure": "Nc1scc2c(C(=O)NC3CC3)nn(-c3ccc(Cl)cc3)c(=O)c12", "parameter-measured": "solubility kinetic", "limit-operator": "=", "recorded-value": 32}
{"structure": "CC(C)NC(=O)c1nn(-c2ccc(Br)cc2)c(=O)c2c(N)scc12", "parameter-measured": "solubility kinetic", "limit-operator": "=", "recorded-value": 13}
{"structure": "CC(C)NC(=O)c1nn(-c2ccc(Cl)cc2)c(=O)c2c(N)scc12", "parameter-measured": "solubility kinetic", "limit-operator": "=", "recorded-value": 32}
